Biological target: T1, 人B7-H3变体1(4Ig-B7-H3) on stable cells 293-h4Ig-B7-H3-copGFP (human, UniProt Q5ZPR3 29-534)
T1 construct: Full-length CDS cloned in pCDH-EF1-T2A-copGFP and expressed on stably transduced cells; residues left by T2A cleavage not described
T1 sequence: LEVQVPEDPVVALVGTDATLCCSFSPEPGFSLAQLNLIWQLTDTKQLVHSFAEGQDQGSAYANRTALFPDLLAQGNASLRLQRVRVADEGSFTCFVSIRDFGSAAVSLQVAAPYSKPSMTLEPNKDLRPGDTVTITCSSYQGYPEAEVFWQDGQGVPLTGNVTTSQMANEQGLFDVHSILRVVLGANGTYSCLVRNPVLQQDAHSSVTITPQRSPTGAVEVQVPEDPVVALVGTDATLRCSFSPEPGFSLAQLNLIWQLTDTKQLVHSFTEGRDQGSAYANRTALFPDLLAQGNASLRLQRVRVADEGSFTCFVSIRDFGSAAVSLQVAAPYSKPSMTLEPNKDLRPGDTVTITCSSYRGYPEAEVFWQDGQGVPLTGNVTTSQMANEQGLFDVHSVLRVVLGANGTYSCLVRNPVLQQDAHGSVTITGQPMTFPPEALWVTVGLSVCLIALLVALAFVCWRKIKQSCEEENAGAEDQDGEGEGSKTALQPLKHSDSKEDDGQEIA
Assay: FACS, 293-h4Ig-B7-H3-copGFP stable cells
OBSERVED_PROPERTY: binding result

[
  {
    "BINDER": "scFv-27B4-H1-L3 (scFv, VH-linker-VL in phage display vector pXY, expressed in TG1, purified on a nickel column) scFv: QVQLVQSGAEVKKPGASVKVSCKASGYTFTTYWMHWVRQAPGQGLEWMGIIYPGDGGSSYAQKFQGRVTMTRDTSTSTVYMELSSLRSEDTAVYYCARGGNYISFPMYYWGQGTLVTVSSGGGGSGGGGSGGGGSGGGGASEIVMTQSPATLSVSPGERATLSCKASRGVSTALAWYQQKPGQAPRLLIYWASTRATGIPARFSGSGSGTEFTLTISSLQSEDFAVYYCQQHYDTPYTFGQGTKLEIK",
    "TEST_RESULT": "binds"
  }
]
